- Species: Homo sapiens
- Assay Info: Selectivity ratio of IC50 for BMX (unknown origin) to IC50 for BTK (unknown origin)
Quantity Kind: Ratio IC50

{"Smiles Text": "COCC(=O)N1CCO[C@@H](c2nc(-c3ccc(C(=O)Nc4cc(C(F)(F)F)ccn4)cc3F)c3c(N)nccn23)C1", "Quantity Kind": "Ratio IC50", "Result": 895}

For each entry beneath this line, provide reported Ratio IC50.
1. CC(C)C(=O)N1CCO[C@@H](c2nc(-c3ccc(C(=O)Nc4cc(C(F)(F)F)ccn4)cc3F)c3c(N)nccn23)C1
2. Nc1nccn2c([C@@H]3CCCN(C4CCOCC4)C3)nc(-c3ccc(C(=O)Nc4cc(C(F)(F)F)ccn4)cc3F)c12
3. COCC(=O)N1CCC[C@@H](c2nc(-c3ccc(C(=O)Nc4cc(C(F)(F)F)ccn4)cc3F)c3c(N)nccn23)C1

Reply |
1: 1600; 2: 153; 3: 93

Values from ChEMBL document CHEMBL4052776
